Read-out: Vascular cell adhesion molecule 1 (VCAM1), VCAM1 (gene 7412)
assay: BSK_CASM3C_VCAM1: BioMAP Diversity Plus: CASM3C Assay for Vascular cell adhesion molecule 1 (VCAM1) Biomarker Activity (AID 2283055);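 note: VCAM-1 protein level quantified by ELISA on the cells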
runParameters: primary human coronary artery smooth muscle cells; actives raise or lower the signal
Calls of active or inactive are those of the source. Rule for the calls: active = hit-call score of the fitted dose curve at least 0.9, where 1 is the maximum; inactive = score below 0.9.
valueKind: AC50

compound	AC50
CC(C)(C)c1cc(O)ccc1O	23.7 µM (active)
CCOC(=O)/C=C(C)/C=C/C[C@@H](C)CCCC(C)C	20 µM (active)
CCC(C)(C)c1ccc(O)c(C(C)(C)CC)c1	12.2 µM (active)
C=CC(=O)OCCCCCC(C)C	inactive
COP(=S)(OC)Oc1ccc(Sc2ccc(OP(=S)(OC)OC)cc2)cc1	inactive

Request the reported AC50 associated with O=C(O)C(Cl)(Cl)Cl inactive

Request the reported AC50 associated with COc1cc(-c2ccc(N)c(OC)c2)ccc1N inactive

----------
Read-out: Vascular cell adhesion molecule 1 (VCAM1), VCAM1 (gene 7412)
assay: BSK_CASM3C_VCAM1: BioMAP Diversity Plus: CASM3C Assay for Vascular cell adhesion molecule 1 (VCAM1) Biomarker Activity (AID 2283055);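 note: VCAM-1 protein level quantified by ELISA on the cells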
runParameters: primary human coronary artery smooth muscle cells; actives raise or lower the signal
Activity calls are given as the source filed them. How the source made its calls: active means hit-call score of the fitted dose curve at least 0.9, where 1 is the maximum; inactive means score below 0.9.
Give your call using only these classes: class 1 = active, class 0 = inactive

Per the records of this test, what outcome belongs to CCC(=O)C(CC(C)N(C)C)(c1ccccc1)c1ccccc1 (stereo not given) ? class 0

----------
assay: BSK_hDFCGF_Proliferation: Cell Proliferation Assessment in the BioMAP Diversity Plus: hDFCGF Assay (AID 2283059);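 note: curves fitted for both rise and fall of signal versus DMSO baseline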
runParameters: primary human foreskin fibroblasts
Description: BSK_hDFCGF is a cell-based, multiplexed-readout assay that uses foreskin fibroblast, a human skin primary cell, with measurements taken at 24 hours after chemical dosing in a 96-well plate.BSK_hDFCGF_Proliferation is an assay component measured in the BSK_hDFCGF assay. It measures […] related to cell proliferation using Sulforhodamine staining technology.Data from the assay component BSK_hDFCGF_Proliferation was analyzed into 1 assay endpoint. […]
Calls of active or inactive are those of the source. The calls were made as follows: active = hit-call score of the fitted dose curve at least 0.9, where 1 is the maximum; inactive = score below 0.9.
Give your call using only these classes: 1 (active), 0 (inactive)

Examples with answers:
molecule	assignedCategory
O=C(OC1CCCCC1)c1ccccc1C(=O)OC1CCCCC1	1
O=C(O)C(F)(F)C(F)(F)C(F)(F)C(F)(F)C(F)(F)C(F)(F)F	0
CCCCC(CC)CO[N+](=O)[O-] (stereo unspecified)	0

Per the records of this test, what outcome belongs to O=[N+]([O-])c1ccc2c3c(cccc13)CC2 ? 1

Per the records of this test, what outcome belongs to O=C(Nc1ccc2[nH]ccc2c1)c1cc2cc(F)ccc2n1Cc1cccc(F)c1 ? 1

Per the records of this test, what outcome belongs to Nc1cccc2ccccc12 ? 1

Per the records of this test, what outcome belongs to COC(=O)Cc1ccccc1 ? 0

Per the records of this test, what outcome belongs to CCOP(=S)(OCC)Oc1ccc(S(C)=O)cc1 (stereo unspecified) ? 0

Per the records of this test, what outcome belongs to Cc1ccccc1N ? 0

Per the records of this test, what outcome belongs to CC1(C)Cc2cccc(O)c2O1 ? 0

Per the records of this test, what outcome belongs to NC(=O)O ? 0

Per the records of this test, what outcome belongs to COP(=S)(OC)Oc1ccc(Sc2ccc(OP(=S)(OC)OC)cc2)cc1 ? 1

Per the records of this test, what outcome belongs to C[C@]12CCC(=O)C[C@@H]1CC[C@@H]1[C@@H]2CC[C@]2(C)[C@@H](O)CC[C@@H]12 ? 0

Per the records of this test, what outcome belongs to C=C(C)C(=O)[O][Sn]([CH2]CCC)([CH2]CCC)[CH2]CCC ? 1

Per the records of this test, what outcome belongs to COc1cc(OC)nc(NC(=O)NS(=O)(=O)c2ncccc2C(=O)N(C)C)n1 ? 0

Per the records of this test, what outcome belongs to COP(=S)(OC)Oc1ccc(S(=O)(=O)N(C)C)cc1 ? 1

Per the records of this test, what outcome belongs to CCN1CCC2(CC1)COc1cc3c(cc12)N(C(=O)c1ccc(-c2ccc(-c4nnc(C)o4)cc2C)cc1)CC3 ? 1

Per the records of this test, what outcome belongs to CC(C)(c1ccccc1)c1ccc(O)c(C(C)(C)c2ccccc2)c1 ? 1

Per the records of this test, what outcome belongs to CC(C)CCCCCCOC(=O)c1ccccc1C(=O)OCCCCCCC(C)C ? 0

Per the records of this test, what outcome belongs to CC(C)(OO)c1ccccc1 ? 1
